Listing of recorded IC50 by entry.
- Target under test: HDAC1 (Homo sapiens (Human), UniProt Q13547)
- Sequence (Q13547 whole entry): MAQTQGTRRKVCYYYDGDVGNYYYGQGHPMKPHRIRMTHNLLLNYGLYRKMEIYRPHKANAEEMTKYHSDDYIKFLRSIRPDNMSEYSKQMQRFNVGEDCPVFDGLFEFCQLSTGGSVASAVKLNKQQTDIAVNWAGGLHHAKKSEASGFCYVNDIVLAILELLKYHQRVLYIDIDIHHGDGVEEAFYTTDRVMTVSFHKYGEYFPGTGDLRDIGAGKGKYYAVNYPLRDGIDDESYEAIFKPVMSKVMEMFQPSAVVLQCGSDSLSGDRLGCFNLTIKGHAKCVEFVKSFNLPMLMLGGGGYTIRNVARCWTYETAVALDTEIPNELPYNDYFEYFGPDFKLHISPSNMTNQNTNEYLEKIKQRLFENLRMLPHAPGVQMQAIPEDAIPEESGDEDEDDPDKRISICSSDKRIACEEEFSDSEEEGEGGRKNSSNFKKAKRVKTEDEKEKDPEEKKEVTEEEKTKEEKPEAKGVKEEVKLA
- Assay remarks: HDAC enzyme assay, HDAC1
- Condition notes: read-out: HDAC1 IC50
Assay endpoint: IC50 (µM)

1) O=C(NO)c1cnc(NCCc2cccc(Cl)c2)nc1 [Compound 42] = 0.078
2) O=C(NO)c1cnc(NC23CC4CC(CC(C4)C2)C3)nc1 [Compound 58] = 0.552
3) O=C(NO)c1cnc(NCc2cccc(Cl)c2)nc1 [Compound 34] = 0.02
4) CC(C)(Nc1ncc(C(=O)NO)cn1)c1ccc(Cl)c(Cl)c1 [Compound 80] = 0.085

----------
Listing of recorded pIC50 by entry.
- Target under test: HDAC1 (Homo sapiens (Human), UniProt Q13547)
- Assay remarks: HDAC enzyme assay, HDAC1
- Condition notes: read-out: HDAC1 IC50
pIC50: −log10 of the molar value.
Assay endpoint: pIC50

1. O=C(NO)c1cnc(NCc2ccc(F)cc2C(F)(F)F)nc1 [Compound 57] = 6.28
2. Cc1ccccc1C1(Nc2ncc(C(=O)NO)cn2)CC1 [Compound 127] = 7.30
3. O=C(NO)c1cnc(NCc2cccs2)nc1 [Compound 105] = 6.67
4. O=C(NO)c1cnc(NCc2ccncc2)nc1 [Compound 69] = 6.69
5. O=C(NO)c1cnc(NCCc2c(Cl)cccc2Cl)nc1 [Compound 63] = 5.84
6. O=C(NO)c1cnc(NCc2c(Cl)cccc2Cl)nc1 [Compound 48] = 6.44
7. O=C(NO)c1cnc(NC2(c3ccc(F)c(F)c3)CC2)nc1 [Compound 140] = 7.26

----------
- Target under test: HDAC2 (Homo sapiens (Human), UniProt Q92769)
- Sequence (Q92769 whole entry): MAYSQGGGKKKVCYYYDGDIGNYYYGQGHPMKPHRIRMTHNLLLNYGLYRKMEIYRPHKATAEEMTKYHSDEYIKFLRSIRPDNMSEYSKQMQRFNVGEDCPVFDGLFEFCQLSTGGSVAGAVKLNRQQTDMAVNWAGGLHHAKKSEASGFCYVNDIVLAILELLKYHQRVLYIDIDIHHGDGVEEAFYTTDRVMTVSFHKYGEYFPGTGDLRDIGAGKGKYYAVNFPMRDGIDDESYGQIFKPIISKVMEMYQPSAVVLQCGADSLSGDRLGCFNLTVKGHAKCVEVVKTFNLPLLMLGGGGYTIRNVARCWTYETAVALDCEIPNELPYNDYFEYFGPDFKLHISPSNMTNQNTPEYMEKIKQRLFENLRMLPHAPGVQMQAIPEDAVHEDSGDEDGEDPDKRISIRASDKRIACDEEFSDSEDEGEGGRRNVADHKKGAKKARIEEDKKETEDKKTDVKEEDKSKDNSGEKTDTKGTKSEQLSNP
- Assay remarks: HDAC enzyme assay, HDAC2
- Condition notes: read-out: HDAC2 IC50
Hi! Could you tag entries with IC50 below 300 nM as rule met, and those at or above as rule not met? Much appreciated.

1) O=C(NO)c1cnc(NCc2cccc(Cl)c2)nc1 = rule met
2) O=C(NO)c1cnc(NC2(c3cc(F)cc(F)c3)CC2)nc1 = rule met
3) O=C(NO)c1cnc(NC2(c3ccccc3)CCCC2)nc1 = rule not met
4) O=C(NO)c1cnc(NC2(c3cccc(F)c3)CCOCC2)nc1 = rule not met
5) Cc1cccc(C2(Nc3ncc(C(=O)NO)cn3)CC2)c1 = rule met
6) O=C(NO)c1cnc(NC2(c3cccc(F)c3F)CC2)nc1 = rule met
7) O=C(NO)c1cnc(NC2CCCCC2)nc1 = rule not met
8) Cc1cc(F)cc(Nc2ncc(C(=O)NO)cn2)c1 = rule met
9) CC(C)(Nc1ncc(C(=O)NO)cn1)c1ccc(Cl)c(Cl)c1 = rule met
10) O=C(NO)c1cnc(NC2(c3ccc(F)cc3Cl)CC2)nc1 = rule met
11) O=C(NO)c1cnc(NC2(c3ccccc3)CCOCC2)nc1 = rule not met
12) COc1cc(Nc2ncc(C(=O)NO)cn2)cc(C(F)(F)F)c1 = rule not met
13) O=C(NO)c1cnc(NCc2c(CO)cccc2CO)nc1 = rule not met
14) Cc1ccc(Nc2ncc(C(=O)NO)cn2)cc1 = rule met
15) O=C(NO)c1cnc(NC2(c3ccco3)CC2)nc1 = rule not met
16) O=C(NO)c1cnc(Nc2ccc(F)cc2)nc1 = rule not met

----------
- Target under test: HDAC1 (Homo sapiens (Human), UniProt Q13547)
- Assay remarks: HDAC enzyme assay, HDAC1
- Condition notes: read-out: HDAC1 IC50
Hi! Could you tag entries with IC50 below 200 nM as fulfilled, and those at or above as not fulfilled? Much appreciated.

1. O=C(NO)c1cnc(NC(c2ccccc2)c2ccccc2)nc1 [Compound 60] = fulfilled
2. O=C(NO)c1cnc(NC2(c3ccccc3C(F)(F)F)CC2)nc1 [Compound 91] = fulfilled
3. O=C(NO)c1cnc(Nc2cc(F)cc(C(F)(F)F)c2)nc1 [Compound 26] = fulfilled
4. O=C(NO)c1cnc(NCc2cnccn2)nc1 [Compound 77] = not fulfilled
5. O=C(NO)c1cnc(NC2CCCCC2)nc1 [Compound 103] = not fulfilled
6. Cc1cccc(C)c1CNc1ncc(C(=O)NO)cn1 [Compound 54] = not fulfilled
7. O=C(NO)c1cnc(NC2(c3cccs3)CC2)nc1 [Compound 98] = fulfilled
8. O=C(NO)c1cnc(NCc2ccccc2)nc1 [Compound 35] = fulfilled
9. COc1ccccc1C1(Nc2ncc(C(=O)NO)cn2)CC1 [Compound 133] = not fulfilled
10. O=C(NO)c1cnc(NC2(c3cc4ccccc4s3)CC2)nc1 [Compound 102] = fulfilled
11. O=C(NO)c1cnc(NCCc2ccccc2)nc1 [Compound 41] = not fulfilled
12. O=C(NO)c1cnc(Nc2c(F)c(F)cc(F)c2F)nc1 [Compound 16] = not fulfilled
13. O=C(NO)c1cnc(NC2(c3cccc(F)c3)CCOCC2)nc1 [Compound 149] = not fulfilled

----------
Listing of recorded IC50 by entry.
- Target under test: HDAC1 (Homo sapiens (Human), UniProt Q13547)
- Assay remarks: HDAC enzyme assay, HDAC1
- Condition notes: read-out: HDAC1 IC50
Assay endpoint: IC50

1. Cc1cc(C)cc(Nc2ncc(C(=O)NO)cn2)c1 = 251 nM
2. CC(C)(Nc1ncc(C(=O)NO)cn1)c1ccc(F)cc1F = 645 nM
3. CC(C)(Nc1ncc(C(=O)NO)cn1)c1cccc(F)c1 = 1140 nM
4. O=C(NO)c1cnc(NC2(c3ccc(F)cc3)CC2)nc1 = 47 nM
5. O=C(NO)c1cnc(Nc2ccc(F)cc2)nc1 = 210 nM
6. COc1ccc(Nc2ncc(C(=O)NO)cn2)cc1 = 247 nM
7. O=C(NO)c1cnc(NC2(c3ccccc3)CCOCC2)nc1 = 586 nM
8. O=C(NO)c1cnc(NC2(c3cc(C(F)(F)F)ccc3F)CC2)nc1 = 7 nM
9. O=C(NO)c1cnc(NC2(c3cc(F)cc(F)c3)CCOCC2)nc1 = 262 nM
10. O=C(NO)c1cnc(NC2(c3cc(C(F)(F)F)cc(C(F)(F)F)c3)CC2)nc1 = 104 nM
11. CC(Nc1ncc(C(=O)NO)cn1)(c1ccccc1)c1ccccc1 = 1270 nM
12. COc1ccccc1CNc1ncc(C(=O)NO)cn1 = 377 nM
13. O=C(NO)c1cnc(NC2(c3cc(F)cc(F)c3)CC2)nc1 = 95 nM
14. O=C(NO)c1cnc(NC2(c3cccs3)CCCCC2)nc1 = 1370 nM
15. CC(C)(Nc1ncc(C(=O)NO)cn1)c1ccc(C(F)(F)F)cc1 = 889 nM

----------
- Target under test: HDAC3 (Homo sapiens (Human))
- Sequence (O15379 whole entry): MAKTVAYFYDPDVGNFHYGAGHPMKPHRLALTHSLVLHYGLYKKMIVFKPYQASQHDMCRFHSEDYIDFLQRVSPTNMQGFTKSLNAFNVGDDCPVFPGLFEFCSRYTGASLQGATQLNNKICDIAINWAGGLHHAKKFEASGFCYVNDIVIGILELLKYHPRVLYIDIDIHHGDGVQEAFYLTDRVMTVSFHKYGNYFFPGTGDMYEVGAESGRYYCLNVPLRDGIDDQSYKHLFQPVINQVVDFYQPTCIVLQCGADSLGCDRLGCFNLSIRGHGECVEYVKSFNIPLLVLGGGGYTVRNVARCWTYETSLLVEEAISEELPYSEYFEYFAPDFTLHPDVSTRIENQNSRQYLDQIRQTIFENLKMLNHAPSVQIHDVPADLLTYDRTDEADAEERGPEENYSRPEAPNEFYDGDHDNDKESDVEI
- Sequence (Q9Y618 395-489 partner): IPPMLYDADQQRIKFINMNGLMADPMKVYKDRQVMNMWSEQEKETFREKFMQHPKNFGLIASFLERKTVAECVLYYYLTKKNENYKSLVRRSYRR
- Assay remarks: HDAC enzyme assay, HDAC3
- Condition notes: read-out: HDAC3 IC50
pIC50: −log10 of the molar value.
Binary classification by pIC50, with 7 as an inclusive lower bound for MET; all other cases are NOT MET.

1. CC(C)(Nc1ncc(C(=O)NO)cn1)c1ccccc1 [Compound 50] = NOT MET
2. O=C(NO)c1cnc(NC2(c3cccc(Cl)c3)CC2)nc1 [Compound 94] = MET
3. O=C(NO)c1cnc(NC2(c3c(F)cccc3F)CC2)nc1 [Compound 124] = MET
4. COc1cc(Nc2ncc(C(=O)NO)cn2)cc(OC)c1 [Compound 23] = NOT MET
5. O=C(NO)c1cnc(NCc2ccc3c(c2)OCO3)nc1 [Compound 46] = MET
6. CC(C)(Nc1ncc(C(=O)NO)cn1)c1ccccc1F [Compound 71] = NOT MET
7. COc1ccccc1C1(Nc2ncc(C(=O)NO)cn2)CC1 [Compound 133] = NOT MET
8. COc1cc(Nc2ncc(C(=O)NO)cn2)cc(C(F)(F)F)c1 [Compound 21] = NOT MET
9. CC(C)(Nc1ncc(C(=O)NO)cn1)c1cccc(F)c1 [Compound 75] = NOT MET
10. O=C(NO)c1cnc(NC2CCOCC2)nc1 [Compound 104] = NOT MET
11. O=C(NO)c1cnc(Nc2cc(F)cc(F)c2)nc1 [Compound 18] = NOT MET
12. CC(Nc1ncc(C(=O)NO)cn1)(c1ccc(F)cc1)c1ccc(F)cc1 [Compound 96] = NOT MET
13. O=C(NO)c1cnc(Nc2cccc(Cl)c2)nc1 [Compound 17] = NOT MET

----------
- Target under test: HDAC2 (Homo sapiens (Human))
- Assay remarks: HDAC enzyme assay, HDAC2
- Condition notes: read-out: HDAC2 IC50
Assay endpoint: IC50 (nM)

1) O=C(NO)c1cnc(Nc2ccc([N+](=O)[O-])c(C(F)(F)F)c2)nc1 = 631
2) O=C(NO)c1cnc(NC2(c3cccc(Cl)c3)CCCC2)nc1 = 491
3) O=C(NO)c1cnc(NCCc2ccccc2Cl)nc1 = 387

----------
- Target under test: HDAC2 (Homo sapiens (Human))
- Assay remarks: HDAC enzyme assay, HDAC2
- Condition notes: read-out: HDAC2 IC50
pIC50: −log10 of the molar value.
Assay endpoint: pIC50

1) O=C(NO)c1cnc(NCc2ccccc2-c2ccccc2)nc1 = 6.23
2) O=C(NO)c1cnc(Nc2cccc(-c3ccncc3)c2)nc1 = 6.74
3) O=C(NO)c1cnc(Nc2cc(Cl)ccc2Cl)nc1 = 6.34
4) O=C(NO)c1cnc(NC2(c3cccc(F)c3)CCCCC2)nc1 = 5.59
5) CC(C)(Nc1ncc(C(=O)NO)cn1)c1cccc(F)c1 = 6.02
6) O=C(NO)c1cnc(Nc2cc(F)cc(C(F)(F)F)c2)nc1 = 6.46
7) O=C(NO)c1cnc(Nc2cc(F)cc(F)c2)nc1 = 6.77
8) O=C(NO)c1cnc(NCCc2ccccc2-c2ccccc2)nc1 = 6.09
9) Cc1cc(C)cc(Nc2ncc(C(=O)NO)cn2)c1 = 6.32
